system: P12-Ichikawa; experiment: cell viability relative to DMSO control; higher = less cytotoxic; settings: RPMI 5 mM glucose + 10% FBS; 48 h; 0.19 µM
property: cell viability (%)
Hi! Could you send only the number? It should be in %, unit omitted.

Illustrative cases are given below, each with its answer.
* COc1ccc(-c2nc3cc(C4=NNC(=O)CC4C)ccc3[nH]2)cc1 (stereo not drawn) | 105
* Cn1cc(-c2ccncc2)c(-c2ccc(OCc3ccc4ccccc4n3)cc2)n1 | 121
* CCc1cc(/C(C)=N/OCc2ccc(C3CCCCC3)c(C(F)(F)F)c2)ccc1CN1CC(C(=O)O)C1 | 106
* Cc1cc(SCc2sc(-c3ccc(C(F)(F)F)c(F)c3)nc2C)ccc1OCC(=O)O | 99.7
* Cc1cnc(Nc2ccc(OCCN3CCCC3)cc2)nc1Nc1cccc([S+](=O)([O-])NC(C)(C)C)c1 | 116

Exercise: What does the data say about its cell viability? Entry: `CCCCc1oc2ccc(NS(C)(=O)=O)cc2c1C(=O)c1ccc(OCCCN(CCCC)CCCC)cc1`
Key: 111

Exercise: Which cell viability is reported for this compound? `COc1cc(/C=C/C(=O)CC(=O)/C=C/c2ccc(O)c(OC)c2)ccc1O`
Key: 110

Exercise: Value lookup for cell viability; key = `N=C(N)c1ccc(OCCCCCOc2ccc(C(=N)N)cc2)cc1`
Key: 111

Exercise: Look at this compound and give its reported cell viability. `Nc1ccc([S+](=O)([O-])Nc2ccccn2)cc1`
Key: 112

Exercise: Can you look up the measured cell viability of `NC12CC3CC(CC(C3)C1)C2` for me?
Key: 123

Exercise: Entry under review: `Cl.Cl.Fc1ccc(C(OCCN2CCN(CCCc3ccccc3)CC2)c2ccc(F)cc2)cc1` . Reported cell viability?
Key: 126

Exercise: Give the measured cell viability of `NC\1=N\C(=O)N(\C=N1)[C@H]2C[C@H](O)[C@@H](CO)O2` .
Key: 103

Exercise: Query: cell viability; subject: `NC/1=N/C(=O)N(/C=C1)[C@H]2CC[C@@H](CO)O2`
Key: 91.1

###

Measured cell viability values are reported for all entries that follow.
system: NOMO1; test: cell viability relative to DMSO control; higher = less cytotoxic; conditions: RPMI 5 mM glucose + 10% FBS; 48 h; 1.71 µM
Please report the result as a number followed by the unit.

Take a look at these entries with their results.
• CCCCOc1ccc(C(=O)Nc2ccc(F)cc2F)cc1 = 93.8%
• CCC(CC)[C@H](NC(C)=O)[C@@H]1[C@H](O)[C@@H](C(=O)O)C[C@H]1NC(=N)N = 87.1%
• CN(C)CCC=C1C2=C(C=CC=C2)\C=C/C3=C1C=CC=C3 = 106%
• CCCn1c(=O)c2[nH]c(-c3cnn(Cc4cccc(C(F)(F)F)c4)c3)nc2n(CC)c1=O = 98.8%

Moving on to another compound below.
Exercise: Reported cell viability for `COc1ccc([C@@H]2CNC(=O)C2)cc1OC1CCCC1` : what is it?
Key: 112%

###

system: NOMO1; assay: cell viability relative to DMSO control; higher = less cytotoxic; conditions: HPLM + 10% dialyzed FBS; 48 h; 46.1 µM
property: cell viability (%)
Note: unit % is implicit; provide only the numeric part.

Please review the following examples before continuing.
• CCC(CC)[C@H](NC(C)=O)[C@@H]1[C@H](O)[C@@H](C(=O)O)C[C@H]1NC(=N)N = 94.9
• Cc1ccc(F)c(NC(=O)Nc2ccc(-c3cccc4[nH]nc(N)c34)cc2)c1 = 86.6
• CCCCOc1ccc(C(=O)Nc2ccc(F)cc2F)cc1 = 51
• c1cc(-c2sc(-c3ccncc3)c(-c3ccncc3)c2-c2ccncc2)ccn1 = 78.3
• CN(C)c1nc(N(C)C)nc(N(C)C)n1 = 89.9
• CCOc1ccccc1OCCNC(C)Cc1ccc(OC)c([S+](N)(=O)[O-])c1 (configuration not stated) = 102

Exercise: Could you share which cell viability value was measured for `CC1=C(/C=C/C(C)=C/C=C/C(C)=C/C(=O)Nc2ccc(O)cc2)C(C)(C)CCC1` ?
Key: 4.95

Exercise: Item under review: O=C1[O][Pt]2([NH]C3CCCCC3[NH]2)[O]C1=O (configuration not stated) . Reported cell viability?
Key: 7.1

Exercise: Consider the molecule shown here: `CO[C@@H]1[C@H](N(C)C(=O)c2ccccc2)C[C@H]2O[C@]1(C)n1c3ccccc3c3c4c(c5c6ccccc6n2c5c31)C(=O)NC4` What is its recorded cell viability?
Key: 49.5

###

Each item that follows carries a reported cell viability.
tested on: NOMO1; test: cell viability relative to DMSO control; higher = less cytotoxic; settings: RPMI 5 mM glucose + 10% dialyzed FBS; 48 h; 5.12 µM
Please give a number only; it is taken to be in %.

* CN(C(=O)c1ccc(F)cc1C(F)(F)F)C1CCN(c2nnc(-c3ccnn3C)c3ccccc23)CC1 | 82.2
* c1cc(OCCN2CCCCC2)cc(-c2n[nH]c3ccc(-c4nc[nH]n4)cc23)c1 | 111
* Nc1ccc([S+](=O)([O-])Nc2ccccn2)cc1 | 109

Continue with the compound presented below.
Exercise: Need cell viability, item `Cc1cc(SCc2sc(-c3ccc(C(F)(F)F)c(F)c3)nc2C)ccc1OCC(=O)O`
Key: 104

###

system: P12-Ichikawa; experiment: cell viability relative to DMSO control; higher = less cytotoxic; conditions: HPLM + 10% dialyzed FBS; 48 h; 5.12 µM
property: cell viability (%)
Answer in %, number only, no unit symbol.

Solved cases below.
• CC1OC(OC/2=C(/OC3=C(C(=CC(=C3)O)O)C2=O)C4=CC=C(O)C=C4)C(O)C(OC(C)=O)C1OC(C)=O (configuration not stated) = 101
• CC(C)[C@@H](N(CCCN)C(=O)C1=CC=C(C)C=C1)C/2=C(\CC3=CC=CC=C3)C(=O)C4=C(O2)C=C(Cl)C=C4 = 10.3
• CCOC(=O)c1ncn2c1CN(C)C(=O)c1cc(F)ccc1-2 = 72
• CC1=C2N=C([NH]C2=CC(=C1)N3CCOCC3)\C4=C(NC[C@@H](O)C5=CC=CC(=C5)Cl)\C=C/NC4=O = 106
• COC1=CC=C2C(=CC=NC2=C1)OC3=CC=C(NC(=O)\C4=C(C)\N(CC(C)(C)O)N(C4=O)C5=CC=CC=C5)C=C3F = 129
• C[C@H]1CCC/C=C/C2C[C@H](O)C[C@H]2[C@H](O)/C=C/C(=O)O1 (some centres not stated) = 2.87
• CCC(CC)[C@H](NC(C)=O)[C@@H]1[C@H](O)[C@@H](C(=O)O)C[C@H]1NC(=N)N = 100
• Cc1c(OCC(F)(F)F)ccnc1C[S+]([O-])c1nc2ccccc2[nH]1 (configuration not stated) = 118

Exercise: // returns reported cell viability for input `CC1=CC2=C(O1)C(=C3OC(=O)\C=C(C)/C3=C2)C`
Key: 108

Exercise: Which cell viability value belongs to `Cc1cnc(Nc2ccc(OCCN3CCCC3)cc2)nc1Nc1cccc([S+](=O)([O-])NC(C)(C)C)c1` ?
Key: 112

Exercise: Recorded cell viability for C[Se]CCC(N)C(=O)O (configuration not stated) , please?
Key: 78.8

Exercise: Any idea what its cell viability is? The compound is `CO[C@@H]1[C@H](N(C)C(=O)c2ccccc2)C[C@H]2O[C@]1(C)n1c3ccccc3c3c4c(c5c6ccccc6n2c5c31)C(=O)NC4`
Key: 17.9

Exercise: Quick check: cell viability of `CN[C@@H](C)C(=O)N[C@H]1CCCC[C@H]2CC[C@@H](C(=O)N[C@@H](c3ccccc3)c3cn(CCCCc4ccc(CCCCn5cc([C@@H](NC(=O)[C@@H]6CC[C@@H]7CCCC[C@H](NC(=O)[C@H](C)NC)C(=O)N76)c6ccccc6)nn5)cc4)nn3)N2C1=O` ?
Key: 96.3

Exercise: Value lookup for cell viability; key = `CCc1cc(/C(C)=N/OCc2ccc(C3CCCCC3)c(C(F)(F)F)c2)ccc1CN1CC(C(=O)O)C1`
Key: 105

Exercise: Need cell viability, item `COc1ccc(CCC(=O)Nc2nc3ccc(Cl)cc3s2)cc1OC`
Key: 104

Exercise: Query: cell viability; subject: `Cc1cc(SCc2sc(-c3ccc(C(F)(F)F)c(F)c3)nc2C)ccc1OCC(=O)O`
Key: 100

Exercise: Can you share its cell viability? I mean this compound: O=C1[O][Pt]2([NH]C3CCCCC3[NH]2)[O]C1=O (configuration not stated)
Key: 62.4

###

system: P12-Ichikawa; assay: cell viability relative to DMSO control; higher = less cytotoxic; conditions: RPMI 5 mM glucose + 10% dialyzed FBS; 48 h; 0.0211 µM
In this section, each of the compounds is paired with its reported cell viability.
# value in %; strip the unit string

Some compounds with known cell viability results, for comparison:
* CCN(CC)CCOC1=CC=C(NC2=NC=C3\C=C(/C(=O)N(C)C3=N2)C4=C(Cl)C=CC=C4Cl)C=C1 | 94.6
* CC1OC(OC/2=C(/OC3=C(C(=CC(=C3)O)O)C2=O)C4=CC=C(O)C=C4)C(O)C(OC(C)=O)C1OC(C)=O (centres undefined) | 115
* C[C@H]1[C@@H](CC(C[C@H]2O[C@@H]3O[C@]4(C)CC[C@H]5[C@H](C)CC[C@@H]([C@H]2C)[C@@]35OO4)C[S+](=O)([O-])c2ccc(COC(=O)N(C)C)cc2)O[C@@H]2O[C@]3(C)CC[C@H]4[C@H](C)CC[C@@H]1[C@@]24OO3 | 110

Attention now turns to another entry.
Exercise: Bench note: what cell viability did COc1ccc(-c2nc3cc(C4=NNC(=O)CC4C)ccc3[nH]2)cc1 (centres undefined) show?
Key: 103
